- SYSTEM: T1, 4H918-bN
- T1 chain: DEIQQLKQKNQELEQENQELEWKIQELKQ
- RUN_DESCRIPTION: two-hybrid library CCNG1;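 note: natural log of median RNA to DNA barcode read ratio; higher means stronger binding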
READOUT_NAME: interaction score

Answered examples (6):
{"BINDER": "DKIQQLKQEIQELKQEIQELEWENQELEQ [4H2627-bN]", "interaction score": -0.935}
{"BINDER": "DENQQLKQKIQELEQKIQELEWENQELKQ [4H1828-bN]", "interaction score": -1.16}
{"BINDER": "DEIQQLEQKNQELKQEIQELKWKIQELKQ [4H462-bN]", "interaction score": -1.19}
{"BINDER": "DKIQQLEQKNQELEQEIQELKWEIQELKQ [4H2442-bN]", "interaction score": -0.127}
{"BINDER": "DKNQQLKQKNQELEQKIQELEWEIQELEQ [4H4001-bN]", "interaction score": -0.935}
{"BINDER": "DEIQQLKQKIQELEQEIQELKWENQELKQ [4H780-bN]", "interaction score": -0.346}

[I] DEIQQLKQENQELEQKIQELKWENQELEQ [4H683-bN]
[II] DEIQQLKQEIQELKQENQELKWKNQELEQ [4H607-bN]
Lowest interaction score? choose I or II State the label of the item chosen.
I
(I: -0.318, II: 0.0461)

Data credit: paper PMC10397247
